// provenance: paper PMC5676773

# target: Or85a (OR/ORCO complex in Or85a-OSNs) (Drosophila melanogaster, UniProt Q9VHS4)
# Construct: native receptor in Or85a-expressing olfactory sensory neurons, antennal slices; GFP-labelled via Or85a-Gal4; with Odorant receptor coreceptor
# Sequence (Q9VHS4 whole entry, the tested form may be a part): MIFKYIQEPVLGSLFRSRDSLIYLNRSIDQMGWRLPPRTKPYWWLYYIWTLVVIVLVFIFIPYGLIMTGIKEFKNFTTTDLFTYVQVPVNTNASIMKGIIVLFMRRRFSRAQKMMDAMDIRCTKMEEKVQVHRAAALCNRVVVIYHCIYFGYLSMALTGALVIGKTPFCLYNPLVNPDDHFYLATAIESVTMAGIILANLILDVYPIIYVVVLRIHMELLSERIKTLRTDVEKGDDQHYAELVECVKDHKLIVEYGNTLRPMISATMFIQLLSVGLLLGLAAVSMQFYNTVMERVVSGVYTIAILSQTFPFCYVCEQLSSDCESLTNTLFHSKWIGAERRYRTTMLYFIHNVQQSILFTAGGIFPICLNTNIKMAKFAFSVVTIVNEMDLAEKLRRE
# Sequence (Q9VNB5 whole entry partner, the tested form may be a part): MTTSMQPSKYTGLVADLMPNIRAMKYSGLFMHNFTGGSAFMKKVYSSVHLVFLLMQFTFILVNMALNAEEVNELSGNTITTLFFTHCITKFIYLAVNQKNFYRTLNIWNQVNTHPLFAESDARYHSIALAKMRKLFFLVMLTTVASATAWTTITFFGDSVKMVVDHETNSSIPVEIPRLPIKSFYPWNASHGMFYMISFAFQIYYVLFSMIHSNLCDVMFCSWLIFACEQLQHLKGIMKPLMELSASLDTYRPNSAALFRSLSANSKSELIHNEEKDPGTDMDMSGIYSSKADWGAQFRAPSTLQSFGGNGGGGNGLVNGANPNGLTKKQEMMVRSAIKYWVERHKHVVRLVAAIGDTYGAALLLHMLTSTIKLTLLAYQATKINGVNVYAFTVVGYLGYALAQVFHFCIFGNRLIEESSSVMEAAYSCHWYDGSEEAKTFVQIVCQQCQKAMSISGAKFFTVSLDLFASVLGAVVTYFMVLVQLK
# assay: perforated patch clamp of Or85a-OSNs, outward receptor current (reduction of basal current)
# condition-context: 150-ms odor pulses, -80 mV; inhibits constitutive activity (inverse agonist), competitive against ethyl 3-hydroxybutyrate; Hill fit, n = 4; read-out: K 1/2
pIC50: −log10 of the molar value.
parameter-measured: pIC50

- CC(=O)c1ccccc1 [acetophenone]: 1.57

---

# target: Or85a (OR/ORCO complex in Or85a-OSNs) (Drosophila melanogaster)
# Construct: native receptor in Or85a-expressing olfactory sensory neurons, antennal slices; GFP-labelled via Or85a-Gal4; with Odorant receptor coreceptor
# assay: perforated patch clamp of Or85a-OSNs, inward receptor current
# condition-context: 35-ms odor pulses, no acetophenone; excitatory odor (agonist); nominal concentration in saline; voltage-clamped; read-out: K 1/2
parameter-measured: EC50 (mM)

• CCOC(=O)CC(C)O (stereo not shown) [ethyl 3-hydroxybutyrate] = 1.1
